system under test: PPARG (peroxisome proliferator activated receptor-gamma), GST-PPARG-LBD (Homo sapiens)
Construct: 15 μL of 5 nM GST-PPARG-LBD and 5 nM Tb-GST-antibody were added; purchased Invitrogen PV4894
Sequence (P37231 238-503 limits assumed): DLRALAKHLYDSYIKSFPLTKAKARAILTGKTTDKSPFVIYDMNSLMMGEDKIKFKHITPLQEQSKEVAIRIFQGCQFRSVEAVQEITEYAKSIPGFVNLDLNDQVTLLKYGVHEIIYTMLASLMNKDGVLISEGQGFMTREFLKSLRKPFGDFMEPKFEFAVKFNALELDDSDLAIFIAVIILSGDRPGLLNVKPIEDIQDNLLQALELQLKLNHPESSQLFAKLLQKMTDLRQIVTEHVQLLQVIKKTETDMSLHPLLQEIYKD
assay explanation: LanthaScreen TR-FRET PPARG Competitive Binding Assay
Set-up: key: “+” indicates the degree of the binding activity, and as the number of “+” increases, the binding activity is stronger; ++: “+” indicates the degree of the binding activity, and as the number of “+” increases, the binding activity is stronger; +++: “+” indicates the degree of the binding activity, and as the number of “+” increases, the binding activity is stronger; ++++: “+” indicates the degree of the binding activity, and as the number of “+” increases, the binding activity is stronger
condition label: degree of binding activity
observation type: Binding assay (1 μLM)

These solved cases illustrate the format of a correct answer.
compound structure string	system under test	Binding assay (1 μLM)
C[C@H](NC(=O)c1ccc2c(c1)CCCN2Cc1ccc(-c2ccccc2C(N)=O)cc1)c1ccccc1	PPARG (peroxisome proliferator activated receptor-gamma), GST-PPARG-LBD (Homo sapiens)	+++
C[C@H](NC(=O)c1ccc2c(c1)CCCN2Cc1ccc(-c2ccccc2C(N)=O)cc1)c1ccc2ccccc2c1	PPARG (peroxisome proliferator activated receptor-gamma), GST-PPARG-LBD (Homo sapiens)	+++
Cc1ccc([C@H](C)NC(=O)c2ccc3c(c2)CCCN3Cc2cc(-c3ccccc3C(=O)O)ccc2F)cc1F	PPARG (peroxisome proliferator activated receptor-gamma), GST-PPARG-LBD (Homo sapiens)	++++
C[C@H](NC(=O)c1ccc2c(c1)OCCN2Cc1ccc(-c2ccccc2C(=O)O)cc1)c1cccc2ccccc12	PPARG (peroxisome proliferator activated receptor-gamma), GST-PPARG-LBD (Homo sapiens)	++
C[C@H](NC(=O)c1ccc2c(c1)CCCN2Cc1ccccc1-c1ccc(C(=O)O)cc1)c1ccc(C#N)cc1	PPARG (peroxisome proliferator activated receptor-gamma), GST-PPARG-LBD (Homo sapiens)	++
C[C@H](NC(=O)c1ccc2c(c1)CCCN2Cc1ccc(-c2ccccc2C(=O)O)cc1)c1ccc(SC(F)(F)F)cc1	PPARG (peroxisome proliferator activated receptor-gamma), GST-PPARG-LBD (Homo sapiens)	++++
O=C(NCc1ccccn1)c1ccc2c(c1)CCCN2Cc1ccc(-c2ccccc2C(=O)O)cc1	PPARG (peroxisome proliferator activated receptor-gamma), GST-PPARG-LBD (Homo sapiens)	++
C[C@H](NC(=O)c1ccc2c(c1)CCCN2Cc1ccc(-c2ccccc2C(N)=O)cc1)c1ccc(Br)cc1	PPARG (peroxisome proliferator activated receptor-gamma), GST-PPARG-LBD (Homo sapiens)	+++

## Input Consider the molecule shown here: C[C@H](NC(=O)c1ccc2c(c1)CCCN2Cc1cccc(-c2ccccc2C(N)=O)c1)c1ccc(C#N)cc1 What is its recorded Binding assay (1 μLM)?
## Output ++
